B1: GNAI1 (parent)
chain: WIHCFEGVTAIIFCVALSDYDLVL

- Variants of: B1
- procedure-text: protein stability index of a GFP-peptide fusion (GPS, HEK-293T) (PSI 1-6); higher = more stable;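 further: lentivirally expressed fusions sorted by FACS into six bins by GFP to DsRed ratio, PSI derived from sequencing read proportions per bin multiplied by bin number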
- stated-conditions: c terminus: a fixed tail appended
protein stability index values by entry

Below: 5 variants and their reported protein stability index.
* H3D | 3.95
* E6K | 1.26
* V15I | 3.06
* T9H | 3.23
* L17A | 3.93

Using the record for H3T , state its measured protein stability index. 3.21

Using the record for A16V , state its measured protein stability index. 1.64

Using the record for L24N , state its measured protein stability index. 4.75

Using the record for I11F , state its measured protein stability index. 3.26

Using the record for W1T , state its measured protein stability index. 2.32

Using the record for I11A , state its measured protein stability index. 1.48
